B1: TRAF3IP2 (parent)
chain: KEHVPTWLQNTHVYSWPKNKKNIL

- Variants of: B1
- experiment.summary: protein stability index of a GFP-peptide fusion (GPS, HEK-293T) (PSI 1-6); higher = more stable;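 also: lentivirally expressed fusions sorted by FACS into six bins by GFP to DsRed ratio, PSI derived from sequencing read proportions per bin multiplied by bin number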
- condition.label: c terminus: a fixed tail appended
Listed here are variants together with their documented protein stability index.
// return just the number, without any unit appended

KEHVPTWLQNTHVYSWPNNKKNIL	2.81
KEHVPTWLQNTHVYSWPKNKKMIL	2.19
KEHVPTWLQNTLVYSWPKNKKNIL	1.79
KEHVSTWLQNTHVYSWPKNKKNIL	2.47
KEHVPTWLQNTHVYSWYKNKKNIL	2.03
HEHVPTWLQNTHVYSWPKNKKNIL	2.58
KEHVPTWLQDTHVYSWPKNKKNIL	3.02
KEHVPTWLQNTHVYSWPKNLKNIL	1.74

Entry KEHVPTWLQNTHVYSWPKNKINIL ; protein stability index = 2.12

Entry KEHVPTWLQNHHVYSWPKNKKNIL ; protein stability index = 2.38

Entry KEVVPTWLQNTHVYSWPKNKKNIL ; protein stability index = 2.69

Entry KEHVPTWLRNTHVYSWPKNKKNIL ; protein stability index = 1.97

Entry KEHVPTWLPNTHVYSWPKNKKNIL ; protein stability index = 2.81

Entry KEHVPTWLQNTGVYSWPKNKKNIL ; protein stability index = 2.8
